MEASURED PARAMETER: melting point

Example entries and their recorded answers appear below.
COMPOUND: COc1cc(CNS(=O)(=O)C(C)C)c(-c2ccc[nH]c2=O)cc1C(C)(C)C
MEASURED PARAMETER: melting point
TEST RESULT: 118 to 120 °C
--
COMPOUND: CCC1(CC)C(=O)C=CN(Cc2cc(OC)c(C(C)(C)C)cc2-c2ccc[nH]c2=O)C1=O
MEASURED PARAMETER: melting point
TEST RESULT: 282 to 284 °C
--
COMPOUND: COc1cc(CN2CCCCC2=O)c(-c2ccc[nH]c2=O)cc1C(C)(C)C
MEASURED PARAMETER: melting point
TEST RESULT: 224.6 to 228.9 °C
--
COMPOUND: COc1cc(C(C)NS(C)(=O)=O)c(-c2ccc[nH]c2=O)cc1C(C)(C)C (centres unmarked)
MEASURED PARAMETER: melting point
TEST RESULT: 284 to 286 °C

Task item: Consider the compound shown here: COc1cc(C(=O)N2CCS(=O)(=O)CC2)c(-c2ccc[nH]c2=O)cc1C(C)(C)C What is its recorded melting point?
Reply: 252 to 254 °C

Task item: Consider the compound shown here: COc1cc(CN(C)S(C)(=O)=O)c(-c2ccc[nH]c2=O)cc1C(C)(C)C What is its recorded melting point?
Reply: 230 to 231 °C

Task item: Consider the compound shown here: COc1cc(CNC(=O)c2ccc(O)cc2)c(-c2ccc[nH]c2=O)cc1C(C)(C)C What is its recorded melting point?
Reply: 205 to 210 °C

Task item: Consider the compound shown here: COc1cc(CN2C(=O)CC[C@@H]2C(=O)O)c(-c2ccc[nH]c2=O)cc1C(C)(C)C What is its recorded melting point?
Reply: 199 to 200 °C

----------
Listing: melting point of selected molecules

MOLECULE: COc1cc(CNC(=O)c2ccc(N)cc2)c(-c2ccc[nH]c2=O)cc1C(C)(C)C
melting point: 165 to 167 °C
//
MOLECULE: COc1cc(C(=O)N2CC(O)C2)c(-c2ccc[nH]c2=O)cc1C(C)(C)C
melting point: 236 to 238 °C
//
MOLECULE: COc1cc(CN(Cc2ccccc2)S(C)(=O)=O)c(-c2ccc[nH]c2=O)cc1C(C)(C)C
melting point: 229 to 230 °C

Task item: Consider the molecule shown here: COc1cc(C(=O)N2CCC(C#N)CC2)c(-c2ccc[nH]c2=O)cc1C(C)(C)C What is its recorded melting point?
Reply: 213 to 215 °C

Task item: Consider the molecule shown here: COc1cc(CCO)c(-c2ccc[nH]c2=O)cc1C(C)(C)C What is its recorded melting point?
Reply: 231.8 to 233.7 °C

----------
target: HCV polymerase (NS5B570n-Con1) (Hepatitis C virus genotype 1b); construct: contains a 21 amino acid deletion at the C-terminus relative to the full-length HCV polymerase; 6-histidine (N); test: HCV NS5B RNA polymerase activity assay
MEASURED PARAMETER: IC50 (nM)
Give just the numeric value; nM need not be written.

Example entries and their recorded answers appear below.
COMPOUND: COc1cc(CNC(=O)c2ccc(NS(C)(=O)=O)cc2)c(-c2ccc[nH]c2=O)cc1C(C)(C)C [Compound I-43]
SYSTEM: HCV polymerase (NS5B570n-Con1) (Hepatitis C virus genotype 1b)
IC50 [nM]: 50
--
COMPOUND: COc1cc(CN2CCCCS2(=O)=O)c(-c2ccc[nH]c2=O)cc1C(C)(C)C [Compound I-16]
SYSTEM: HCV polymerase (NS5B570n-Con1) (Hepatitis C virus genotype 1b)
IC50 [nM]: 35
--
COMPOUND: COc1cc(C(=O)N2CCC(F)(F)CC2)c(-c2ccc[nH]c2=O)cc1C(C)(C)C [Compound I-62]
SYSTEM: HCV polymerase (NS5B570n-Con1) (Hepatitis C virus genotype 1b)
IC50 [nM]: 955
--
COMPOUND: COc1cc(CN2C(=O)c3ccccc3C2=O)c(-c2ccc[nH]c2=O)cc1C(C)(C)C [Compound I-33]
SYSTEM: HCV polymerase (NS5B570n-Con1) (Hepatitis C virus genotype 1b)
IC50 [nM]: 35
--
COMPOUND: COc1cc(CNC(=O)c2ccc(N)cc2)c(-c2ccc[nH]c2=O)cc1C(C)(C)C [Compound I-42]
SYSTEM: HCV polymerase (NS5B570n-Con1) (Hepatitis C virus genotype 1b)
IC50 [nM]: 36

Task item: Consider the compound shown here: COc1cc(CN2CCCC2=O)c(-c2ccc[nH]c2=O)cc1C(C)(C)C [Compound I-18] What is its recorded IC50?
Reply: 121

Task item: Consider the compound shown here: CC(C)(C)c1ccc(NS(C)(=O)=O)c(-c2ccc[nH]c2=O)c1 [Compound I-6] What is its recorded IC50?
Reply: 3850

Task item: Consider the compound shown here: COc1cc(C(=O)N2CCN(C(C)=O)CC2)c(-c2ccc[nH]c2=O)cc1C(C)(C)C [Compound I-46] What is its recorded IC50?
Reply: 615
